- System: P388 murine leukemia cells
- PROCEDURE DETAILS: In vitro cytotoxicity, continuous (48-hour) exposure of P388 cells
- Assay type: cell-based
- REPORTED CONDITIONS: Mus musculus; P388, continuous exposure (48-hour); read-out: in vitro cytotoxicity IC50, cont. exp.
Each entry below carries its reported IC50.
ENDPOINT LABEL: IC50

* Cc1cc(-c2c(F)cc3c4nn(Cc5ccccc5O)c(=O)c-4cn(C4CC4)c3c2F)cc(C)n1 | 1400 nM
* COc1ccccc1Cn1nc2c3cc(F)c(-c4cc(C)nc(C)c4)c(F)c3n(C3CC3)cc-2c1=O | 1200 nM
* Cc1cc(-c2c(F)cc3c4nn(C5CCCCCC5)c(=O)c-4cn(C4CC4)c3c2F)cc(C)n1 | 1500 nM
* Cc1cc(-c2c(F)cc3c4nn(CCCCO)c(=O)c-4cn(C4CC4)c3c2F)cc(C)n1 | 880 nM

* * *

- Test system: P388 murine leukemia cells
- PROCEDURE DETAILS: In vitro cytotoxicity, one-hour exposure, clonogenic survival of P388 cells
- Type: cell-based
- REPORTED CONDITIONS: Mus musculus, read-out: in vitro cytotoxicity IC50, 1 hr exp.; P388, 1 hr exposure
pIC50: −log10 of the molar value.
ENDPOINT LABEL: pIC50

* Cc1cc(-c2c(F)cc3c4nn(CCNCCO)c(=O)c-4cn(C4CC4)c3c2F)cc(C)n1 | 5.89
* Cc1cc(-c2c(F)cc3c4nn(C5CCNCC5)c(=O)c-4cn(C4CC4)c3c2F)cc(C)n1 | 5.64
* Cc1cc(-c2c(F)cc3c4nn(C5CCC(c6ccccc6)CC5)c(=O)c-4cn(C4CC4)c3c2F)cc(C)n1 (stereo not drawn) | 5.08

* * *

- System: P388 murine leukemia cells
- PROCEDURE DETAILS: In vitro cytotoxicity, continuous (48-hour) exposure of P388 cells
- Type: cell-based
- REPORTED CONDITIONS: Mus musculus; P388, continuous exposure (48-hour); read-out: in vitro cytotoxicity IC50, cont. exp.
pIC50: −log10 of the molar value.
Label y when pIC50 is at or above 7; anything below gets n.

• Cc1cc(-c2c(F)cc3c4nn(CCC#N)c(=O)c-4cn(C4CC4)c3c2F)cc(C)n1 [Example 13] = n
• Cc1ccc(-n2nc3c4cc(F)c(-c5cc(C)nc(C)c5)c(F)c4n(C4CC4)cc-3c2=O)cc1 [Example 24] = n
• Cc1cc(-c2c(F)cc3c4nn(CCN5CCCC5)c(=O)c-4cn(C4CC4)c3c2F)cc(C)n1 [Example 18] = y
• Cc1cc(-c2c(F)cc3c4nn(CCO)c(=O)c-4cn(C4CC4)c3c2F)cc(C)n1 [Example 10] = n
• COc1ccc(Cn2nc3c4cc(F)c(-c5cc(C)nc(C)c5)c(F)c4n(C4CC4)cc-3c2=O)cc1 [Example 34] = n

* * *

- SUBJECT OF TEST: human topoisomerase II (Homo sapiens)
- Construct: Topo II was purified from late log phase suspension cultures of HeLa WIS; endogenous in cells; host or cells: HeLa WIS
- Sequence (P11388 whole entry): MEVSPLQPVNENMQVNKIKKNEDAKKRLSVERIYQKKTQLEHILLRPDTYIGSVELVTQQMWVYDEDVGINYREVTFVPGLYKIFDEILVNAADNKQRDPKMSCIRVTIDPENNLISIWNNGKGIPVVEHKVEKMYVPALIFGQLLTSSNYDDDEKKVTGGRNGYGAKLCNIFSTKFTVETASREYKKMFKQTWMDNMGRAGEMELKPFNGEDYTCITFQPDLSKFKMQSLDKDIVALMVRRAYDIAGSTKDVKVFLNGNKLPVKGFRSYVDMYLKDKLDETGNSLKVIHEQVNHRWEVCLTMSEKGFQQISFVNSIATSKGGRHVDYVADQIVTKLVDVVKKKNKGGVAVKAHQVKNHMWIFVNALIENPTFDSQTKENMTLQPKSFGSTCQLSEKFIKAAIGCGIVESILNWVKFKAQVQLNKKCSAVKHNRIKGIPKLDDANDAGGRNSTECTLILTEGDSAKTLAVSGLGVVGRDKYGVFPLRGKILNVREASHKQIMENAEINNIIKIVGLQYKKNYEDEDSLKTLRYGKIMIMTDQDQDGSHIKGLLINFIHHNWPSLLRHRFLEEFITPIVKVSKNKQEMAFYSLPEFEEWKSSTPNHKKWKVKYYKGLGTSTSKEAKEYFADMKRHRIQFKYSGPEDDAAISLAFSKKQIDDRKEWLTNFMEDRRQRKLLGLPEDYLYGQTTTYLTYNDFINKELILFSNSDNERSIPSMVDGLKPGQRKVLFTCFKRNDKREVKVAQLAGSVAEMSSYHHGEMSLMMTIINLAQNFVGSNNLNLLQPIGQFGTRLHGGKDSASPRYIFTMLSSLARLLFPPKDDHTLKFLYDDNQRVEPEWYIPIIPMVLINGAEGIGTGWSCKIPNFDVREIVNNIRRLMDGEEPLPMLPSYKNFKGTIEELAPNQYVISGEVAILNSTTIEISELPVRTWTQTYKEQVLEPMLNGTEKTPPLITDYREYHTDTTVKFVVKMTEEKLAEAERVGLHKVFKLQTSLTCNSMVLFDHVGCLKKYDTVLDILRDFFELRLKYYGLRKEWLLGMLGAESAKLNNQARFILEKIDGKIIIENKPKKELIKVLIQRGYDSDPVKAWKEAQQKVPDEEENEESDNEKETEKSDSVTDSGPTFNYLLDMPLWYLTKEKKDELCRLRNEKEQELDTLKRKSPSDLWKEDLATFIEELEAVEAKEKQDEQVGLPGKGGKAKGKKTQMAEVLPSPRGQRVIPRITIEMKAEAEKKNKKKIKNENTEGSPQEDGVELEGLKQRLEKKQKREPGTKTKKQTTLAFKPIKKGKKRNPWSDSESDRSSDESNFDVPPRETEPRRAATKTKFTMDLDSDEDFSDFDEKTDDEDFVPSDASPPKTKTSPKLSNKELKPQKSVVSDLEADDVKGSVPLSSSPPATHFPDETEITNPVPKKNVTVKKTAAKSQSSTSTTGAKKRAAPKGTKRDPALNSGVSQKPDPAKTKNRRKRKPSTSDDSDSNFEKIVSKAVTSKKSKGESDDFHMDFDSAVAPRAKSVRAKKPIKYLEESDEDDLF
- PROCEDURE DETAILS: Mammalian topoisomerase II inhibition assay (topo II covalently attached to DNA, relative to mAMSA)
- Type: biochemical
- REPORTED CONDITIONS: conc. achieving 50% of maximal effect of mAMSA; topo II from HeLa cells; read-out: topo II inh. EC50
ENDPOINT LABEL: EC50 (µM)

• Cc1cc(-c2c(F)cc3c4nn([C@H]5CC[C@@H](N(C)C)CC5)c(=O)c-4cn(C4CC4)c3c2F)cc(C)n1 [Example 51a] = 1.7
• Cc1cc(-c2c(F)cc3c4nn(CCN5CCOCC5)c(=O)c-4cn(C4CC4)c3c2F)cc(C)n1 [Example 20] = 48
• Cc1cc(-c2c(F)cc3c4nn([C@H]5CC[C@H](N(C)C)CC5)c(=O)c-4cn(C4CC4)c3c2F)cc(C)n1 [Example 51b] = 4.4
• CCOC(=O)Cn1nc2c3cc(F)c(-c4cc(C)nc(C)c4)c(F)c3n(C3CC3)cc-2c1=O [Example 9] = 6.1

Attribution: patent US5334595A
